Catalogue of log10(IC50) values
Target: human GOAT (Homo sapiens (Human), UniProt Q96T53)
Sequence (Q96T53 whole entry): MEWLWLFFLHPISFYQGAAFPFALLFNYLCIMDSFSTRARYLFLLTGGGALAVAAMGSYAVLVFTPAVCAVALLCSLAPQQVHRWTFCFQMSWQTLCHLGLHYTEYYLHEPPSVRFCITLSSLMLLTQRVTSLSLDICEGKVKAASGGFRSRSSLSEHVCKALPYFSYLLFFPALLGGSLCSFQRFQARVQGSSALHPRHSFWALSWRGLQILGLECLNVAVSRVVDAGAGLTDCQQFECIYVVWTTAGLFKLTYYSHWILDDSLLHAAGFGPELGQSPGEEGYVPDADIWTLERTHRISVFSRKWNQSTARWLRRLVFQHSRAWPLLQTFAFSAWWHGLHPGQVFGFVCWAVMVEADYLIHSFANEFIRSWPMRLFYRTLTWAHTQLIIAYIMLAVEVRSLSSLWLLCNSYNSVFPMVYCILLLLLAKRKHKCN
Experiment: Determination of hGOAT activity in HEK293 cells after incubation with test compound (acyl-ghrelin ELISA)
Conditions: HEK293 cells stably expressing human GOAT and preproghrelin; 5 h incubation with octanoate-BSA; acyl-ghrelin in medium by ELISA
Description: Determination of hGOAT Activity in HEK293 Cells after Incubation with Test Compound HEK293 cells stably transfected with two expression vectors, one coding for preproghrelin cDNA and a second for the expression of human GOAT cDNA are used as a cellular model. After feeding the cells with octanoic acid for 5 hours, acyl-ghrelin is measured in cell culture medium by an ELISA procedure. Cellline: Hek293 hGOAT/PPGhrl Clone #1B8Sodium octanoate, Sigma, Cat.-No. C5038 […]
Please keep in mind that the values are log10 of IC50 expressed in nM.

Example results:
> print(dat)
                                    compound                             target.system  quantitative.readout
 1  Cc1nc2nonc2c(N)c1Cn1cc(-c2c(C)noc2C)cn1 [Example 1.3]  human GOAT (Homo sapiens (Human), UniProt Q96T53)                  0.34
 2  Cc1nc2nonc2c(N)c1Cn1ccc(C(=O)N2CCC(F)(F)C2)n1 [Example 7.1]  human GOAT (Homo sapiens (Human), UniProt Q96T53)                 -0.08
 3  Cc1nc2nonc2c(N)c1Cn1nccc1-c1ccccc1F [Example 2.3]  human GOAT (Homo sapiens (Human), UniProt Q96T53)                 -0.55
 4  Cc1nc2nonc2c(N)c1Cn1cc(-c2cnn(C)c2)c(C(F)(F)F)n1 [Example 3.4]  human GOAT (Homo sapiens (Human), UniProt Q96T53)                  0.71
 5  Cc1nc2nonc2c(N)c1Cn1cc(-c2cccc(S(C)(=O)=O)c2)c(C(F)(F)F)n1 [Example 3.1]  human GOAT (Homo sapiens (Human), UniProt Q96T53)                  0.52
 6  Cc1nc2nonc2c(N)c1Cn1ccc(C=O)n1 [Example 2.4]  human GOAT (Homo sapiens (Human), UniProt Q96T53)                  0.23
 7  COC(=O)c1ccn(Cc2c(C)nc3nonc3c2N)n1 [Example 1.6]  human GOAT (Homo sapiens (Human), UniProt Q96T53)                 -0.02
 8  Cc1nc2nonc2c(N)c1Cn1cc2ccccc2n1 [Example 6.1]  human GOAT (Homo sapiens (Human), UniProt Q96T53)                 -0.16
 9  Cc1nc2nonc2c(N)c1Cn1ccc(CN2CCC(F)(F)CC2)n1 [Example 9.1]  human GOAT (Homo sapiens (Human), UniProt Q96T53)                  0.87
10  Cc1nc2nonc2c(N)c1Cn1cc(C(C)(C)C)cn1 [Example 1.4]  human GOAT (Homo sapiens (Human), UniProt Q96T53)                 -0.29

Please give the documented log10(IC50) of Cc1nc2nonc2c(N)c1Cn1ccc(N2CCCS2(=O)=O)n1 [Example 2.5]
-0.74

Return value of log10(IC50) for input Cc1nc2nonc2c(N)c1Cn1ccc(-c2c[nH]nc2C(F)(F)F)n1 [Example 4.2] , no commentary.
-0.96

Please indicate log10(IC50) recorded for Cc1nc2nonc2c(N)c1Cn1cc(NC(=O)OC(C)(C)C)cn1 [Example 1.5]
0.52

Return log10(IC50) (reported value) for this compound: CCOC(=O)c1cnn(Cc2c(C)nc3nonc3c2N)c1 [Example 1.1]
0.23

Annotate the compound Cc1nc2nonc2c(N)c1Cn1ccc(C(=O)N2CCC(F)(F)CC2)n1 [Example 7.2] with its measured log10(IC50).
0.54

Return value of log10(IC50) for input Cc1nc2nonc2c(N)c1Cn1ccc(-c2ccnn2C)n1 [Example 4.14] , no commentary.
-0.70

Supply log10(IC50) value. Item: Cc1nc2nonc2c(N)c1Cn1cc2cc(C#N)ccc2n1 [Example 1.9]
0.64

Item Cc1nc2nonc2c(N)c1Cn1ccc(-c2ccc(S(C)(=O)=O)cc2F)n1 [Example 4.12] : provide log10(IC50)
-1.12

Look up and state reported log10(IC50) for Cc1nc2nonc2c(N)c1Cn1cc(Br)cn1 [Example 2.6]
0.64

For the compound Cc1nc2nonc2c(N)c1Cn1ccc(-c2c(C)noc2C)n1 [Example 4.4] , give its reported log10(IC50).
-0.54

Look up log10(IC50) of Cc1nc2nonc2c(N)c1Cn1ccc(-c2cnoc2)n1 [Example 4.5] and report it.
0.58

Return log10(IC50) (reported value) for this compound: Cc1nc2nonc2c(N)c1Cn1ccc(C(=O)N2CCC(O)(C(F)(F)F)C2)n1 (stereo not drawn) [Example 7.3]
0.71

For the compound Cc1nc2nonc2c(N)c1Cn1ccc(-c2cn(C)c3ncccc23)n1 [Example 4.11] , give its measured log10(IC50) value.
-0.72

# return recorded log10(IC50) for input Cc1nc2nonc2c(N)c1Cn1ccc(-c2cccc(S(C)(=O)=O)c2)n1 [Example 4.8]
-1.02
